FYI, the data here is from ChEMBL document CHEMBL1141655.

Consider the following compounds and their measured pEC50 readings.
target: Bcl-2-like protein 1 (Homo sapiens, UniProt Q07817); assay: Binding affinity to recombinant Bcl-XL expressed in Escherichia coli BL21 by fluorescence polarization assay
Sequence (Q07817 whole entry): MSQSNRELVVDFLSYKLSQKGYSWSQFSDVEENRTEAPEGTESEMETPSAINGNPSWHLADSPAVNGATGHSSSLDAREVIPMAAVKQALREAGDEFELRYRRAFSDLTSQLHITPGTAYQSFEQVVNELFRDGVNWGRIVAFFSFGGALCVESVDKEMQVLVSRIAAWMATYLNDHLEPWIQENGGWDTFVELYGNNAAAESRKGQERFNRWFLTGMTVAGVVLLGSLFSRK
Note: pEC50 values are expressed as the negative base-10 logarithm of concentration in M.

Param item = CC[C@H](C)[C@H](NC(=O)[C@H](C)NC(=O)[C@H](Cc1cccc(Cl)c1)NC(=O)[C@H](CCC(N)=O)NC(=O)[C@H](CCCN=C(N)N)NC(=O)CNC(=O)[C@@H](NC(=O)[C@H](CCC(N)=O)NC(=O)CN)C(C)C)C(=O)N[C@H](C(=O)NCC(=O)N[C@@H](CC(=O)O)C(=O)N[C@@H](CC(=O)O)C(=O)N[C@H](C(=O)N[C@@H](CC(N)=O)C(=O)N[C@@H](CCCN=C(N)N)C(=O)O)[C@@H](C)CC)[C@@H](C)CC ; retrieve measured pEC50.
6.44

Please look at the following compound next.
Param item = CCCC[C@H](NC(=O)[C@H](CCC(N)=O)NC(=O)CN)C(=O)NCC(=O)N[C@@H](CCCN=C(N)N)C(=O)N[C@@H](CCC(N)=O)C(=O)N[C@@H](CC(C)C)C(=O)N[C@@H](C)C(=O)N[C@H](C(=O)N[C@H](C(=O)NCC(=O)N[C@@H](CC(=O)O)C(=O)N[C@@H](CC(=O)O)C(=O)N[C@H](C(=O)N[C@@H](CC(N)=O)C(=O)N[C@@H](CCCN=C(N)N)C(=O)O)[C@@H](C)CC)[C@@H](C)CC)[C@@H](C)CC ; retrieve measured pEC50.
7.15

----------
molecular target: Bcl-2-like protein 1 (Homo sapiens, UniProt Q07817); test: Binding affinity to recombinant Bcl-XL expressed in Escherichia coli BL21 by fluorescence polarization assay
Non-standard residues stand in square brackets, D forms with d. Residues, ends and D or L forms follow the SMILES beside them. Phe(4-Cl) = N[C@@H](Cc1ccc(Cl)cc1)C(=O)O; 2Nal = N[C@@H](Cc1ccc2ccccc2c1)C(=O)O
ASSAY METRIC: EC50 (nM)
Give the value, in units of nM, as a plain number.

Param item = CC[C@H](C)[C@H](NC(=O)[C@H](C)NC(=O)[C@H](CC(C)C)NC(=O)[C@H](CCC(N)=O)NC(=O)[C@H](CCCN=C(N)N)NC(=O)CNC(=O)[C@@H](NC(=O)[C@H](CCC(N)=O)NC(=O)CN)C(C)C)C(=O)N[C@@H](Cc1cccc2ccccc12)C(=O)NCC(=O)N[C@@H](CC(=O)O)C(=O)N[C@@H](CC(=O)O)C(=O)N[C@H](C(=O)N[C@@H](CC(N)=O)C(=O)N[C@@H](CCCN=C(N)N)C(=O)O)[C@@H](C)CC ; retrieve measured EC50.
299

Param item = CC[C@H](C)[C@H](NC(=O)[C@H](C)NC(=O)[C@H](Cc1ccc2ccccc2c1)NC(=O)[C@H](CCC(N)=O)NC(=O)[C@H](CCCNC(=N)N)NC(=O)CNC(=O)[C@@H](NC(=O)[C@H](CCC(N)=O)NC(=O)CN)C(C)C)C(=O)N[C@H](C(=O)NCC(=O)N[C@@H](CC(=O)O)C(=O)N[C@@H](CC(=O)O)C(=O)N[C@@H](Cc1ccc(Cl)cc1)C(=O)N[C@@H](CC(N)=O)C(=O)N[C@@H](CCCNC(=N)N)C(=O)O)[C@@H](C)CC (H-GQVGRQ[2Nal]AIIGDD[Phe(4-Cl)]NR-OH) ; retrieve measured EC50.
53

Param item = CC[C@H](C)[C@H](NC(=O)[C@H](C)NC(=O)[C@H](CC(C)C)NC(=O)[C@H](CCC(N)=O)NC(=O)[C@H](CCCNC(=N)N)NC(=O)CNC(=O)[C@@H](NC(=O)[C@H](CCC(N)=O)NC(=O)CN)C(C)C)C(=O)N[C@H](C(=O)NCC(=O)N[C@@H](CC(=O)O)C(=O)N[C@@H](CC(=O)O)C(=O)N[C@@H](Cc1cccc(Cl)c1)C(=O)N[C@@H](CC(N)=O)C(=O)N[C@@H](CCCNC(=N)N)C(=O)O)[C@@H](C)CC ; retrieve measured EC50.
56

Param item = CC[C@H](C)[C@H](NC(=O)[C@H](C)NC(=O)[C@H](CC(C)C)NC(=O)[C@H](CCC(N)=O)NC(=O)[C@H](CCCNC(=N)N)NC(=O)CNC(=O)[C@@H](NC(=O)[C@H](CCC(N)=O)NC(=O)CN)C(C)C)C(=O)N[C@H](C(=O)NCC(=O)N[C@@H](CC(=O)O)C(=O)N[C@@H](CC(=O)O)C(=O)N[C@@H](CC1CCCCC1)C(=O)N[C@@H](CC(N)=O)C(=O)N[C@@H](CCCNC(=N)N)C(=O)O)[C@@H](C)CC ; retrieve measured EC50.
58

Param item = CC[C@H](C)[C@H](NC(=O)[C@H](CC(=O)O)NC(=O)[C@H](CC(=O)O)NC(=O)CNC(=O)[C@H](Cc1ccc(O)cc1)N(C)C(=O)[C@@H](NC(=O)[C@H](C)NC(=O)[C@H](CC(C)C)NC(=O)[C@H](CCC(N)=O)NC(=O)[C@H](CCCNC(=N)N)NC(=O)CNC(=O)[C@@H](NC(=O)[C@H](CCC(N)=O)NC(=O)CN)C(C)C)[C@@H](C)CC)C(=O)N[C@@H](CC(N)=O)C(=O)N[C@@H](CCCNC(=N)N)C(=O)O ; retrieve measured EC50.
3620

----------
biological target: Bcl-2-like protein 1 (Homo sapiens); assay: Binding affinity to recombinant Bcl-XL expressed in Escherichia coli BL21 by fluorescence polarization assay
Non-standard residues stand in square brackets, D forms with d. Residues, ends and D or L forms follow the SMILES beside them. 2Nal = N[C@@H](Cc1ccc2ccccc2c1)C(=O)O
Consider the following molecules and their measured pEC50 readings.
Note: pEC50 values are expressed as the negative base-10 logarithm of concentration in M.

Check out these entries, answers already filled in.
Param item = CC[C@H](C)[C@H](NC(=O)[C@H](C)NC(=O)[C@H](Cc1ccc2ccccc2c1)NC(=O)[C@H](CCC(N)=O)NC(=O)[C@H](CCCNC(=N)N)NC(=O)CNC(=O)[C@@H](NC(=O)[C@H](CCC(N)=O)NC(=O)CN)C(C)C)C(=O)N[C@H](C(=O)NCC(=O)N[C@@H](CC(=O)O)C(=O)N[C@@H](CC(=O)O)C(=O)N[C@@H](Cc1ccccc1)C(=O)N[C@@H](CC(N)=O)C(=O)N[C@@H](CCCNC(=N)N)C(=O)O)[C@@H](C)CC (H-GQVGRQ[2Nal]AIIGDDFNR-OH) ; retrieve measured pEC50.
7.27

Param item = CC[C@H](C)[C@H](NC(=O)[C@H](C)NC(=O)[C@H](CC(C)C)NC(=O)[C@H](CCC(N)=O)NC(=O)[C@H](CCCN=C(N)N)NC(=O)CNC(=O)[C@@H](NC(=O)[C@H](CCC(N)=O)NC(=O)CN)C(C)C)C(=O)N[C@H](C(=O)NCC(=O)N[C@@H](CC(=O)O)C(=O)N[C@@H](CC(=O)O)C(=O)N[C@@H](Cc1cccc2ccccc12)C(=O)N[C@@H](CC(N)=O)C(=O)N[C@@H](CCCN=C(N)N)C(=O)O)[C@@H](C)CC ; retrieve measured pEC50.
7.11

Please look at the following molecule next.
Param item = CC[C@H](C)[C@H](NC(=O)[C@H](C)NC(=O)[C@H](CC(C)C)NC(=O)[C@H](CCC(N)=O)NC(=O)[C@H](CCCNC(=N)N)NC(=O)CNC(=O)[C@@H](NC(=O)[C@H](CCC(N)=O)NC(=O)CN)C(C)C)C(=O)N[C@@H](Cc1ccccc1)C(=O)NCC(=O)N[C@@H](CC(=O)O)C(=O)N[C@@H](CC(=O)O)C(=O)N[C@H](C(=O)N[C@@H](CC(N)=O)C(=O)N[C@@H](CCCNC(=N)N)C(=O)O)[C@@H](C)CC ; retrieve measured pEC50.
5.67

----------
molecular target: Bcl-2-like protein 1 (Homo sapiens, UniProt Q07817); assay: Binding affinity to recombinant Bcl-XL expressed in Escherichia coli BL21 by fluorescence polarization assay
Consider the following molecules and their measured EC50 readings.

Param item = CC[C@H](C)[C@H](NC(=O)[C@H](C)NC(=O)[C@H](CC(C)C)NC(=O)[C@H](CCC(N)=O)NC(=O)[C@H](CCCNC(=N)N)NC(=O)CNC(=O)[C@@H](NC(=O)[C@H](CCC(N)=O)NC(=O)CN)C(C)C)C(=O)N[C@H](C(=O)NCC(=O)N[C@@H](CC(=O)O)C(=O)N[C@@H](CC(=O)O)C(=O)N[C@@H](Cc1ccc(Cl)cc1)C(=O)N[C@@H](CC(N)=O)C(=O)N[C@@H](CCCNC(=N)N)C(=O)O)[C@@H](C)CC ; retrieve measured EC50.
38 nM

Param item = CC[C@H](C)[C@H](NC(=O)[C@H](C)NC(=O)[C@H](CC(C)C)NC(=O)[C@H](CCC(N)=O)NC(=O)[C@H](CCCN=C(N)N)NC(=O)CNC(=O)[C@@H](NC(=O)[C@H](CCC(N)=O)NC(=O)CN)C(C)C)C(=O)N[C@H](C(=O)NCC(=O)N[C@@H](CC(=O)O)C(=O)N[C@@H](CC(=O)O)C(=O)N[C@@H](Cc1ccc(I)cc1)C(=O)N[C@@H](CC(N)=O)C(=O)N[C@@H](CCCN=C(N)N)C(=O)O)[C@@H](C)CC ; retrieve measured EC50.
45 nM

Please look at the following molecule next.
Param item = CC[C@H](C)[C@H](NC(=O)[C@H](C)NC(=O)[C@H](CC(C)C)NC(=O)[C@H](CCC(N)=O)NC(=O)[C@H](CCCNC(=N)N)NC(=O)CNC(=O)[C@@H](NC(=O)[C@H](CCC(N)=O)NC(=O)CN)C(C)C)C(=O)N[C@@H](C)C(=O)NCC(=O)N[C@@H](CC(=O)O)C(=O)N[C@@H](CC(=O)O)C(=O)N[C@H](C(=O)N[C@@H](CC(N)=O)C(=O)N[C@@H](CCCNC(=N)N)C(=O)O)[C@@H](C)CC ; retrieve measured EC50.
17000 nM
